EC50 [µM], FXa generation assay values by entry
- target or test system: human Factor IXa (human, UniProt P00740 47-191; P00740 227-461)
- protocol description: cell-based or functional assay
Square brackets hold non-standard residues; d marks the D form. Ends that are not written are not given here. NMeL = CN[C@@H](CC(C)C)C(=O)O

Worked examples follow.
// fetch EC50 [µM], FXa generation assay given entry KLTCLASACWLF
< 0.5 µM

// fetch EC50 [µM], FXa generation assay given entry KLTCLGSYCWLF
> 1 µM

// fetch EC50 [µM], FXa generation assay given entry PRIRTVGPGSRSASGKLTCLASYCWLFWTLIA
< 0.5 µM

// fetch EC50 [µM], FXa generation assay given entry CGGGLVPRGGGRRAPGKLTDLASYKWLFWTGIA [CGGGLVPRGGG-RRAPGKLT-Asp-LASY-Lys-WLFWTGIA]
< 0.5 µM

// fetch EC50 [µM], FXa generation assay given entry RRAPGKLCALASYACLFWTGIA-NH2 (cysteine pairing not given here) [RRAPGKLCALASYACLFWTGIA-CONH2]
> 10 µM

// fetch EC50 [µM], FXa generation assay given entry HGLADRLTCLSSDCWLQPFGTS
> 50 µM

// fetch EC50 [µM], FXa generation assay given entry SCVKHELKCLSSDSRLFSAVQR
> 20 µM

// fetch EC50 [µM], FXa generation assay given entry KLTCLASYCW[NMeL]F (cysteine pairing not given here) [KLTCLASYCW-MeLeu-F]
> 1 µM

***
// fetch EC50 [µM], FXa generation assay given entry PGKLQCLASYCWLFWTGIA
< 0.5 µM

// fetch EC50 [µM], FXa generation assay given entry HDSLDQLTCLASVCQLASMGAR
> 1 µM

// fetch EC50 [µM], FXa generation assay given entry PTDTGPVISGLRAPGKLTCLASYCWLFWTGIA [PTDTGPVISG LRAPG KLTCLASYCWLFWTGIA]
< 0.5 µM

// fetch EC50 [µM], FXa generation assay given entry KLTCLASYCWLF (Lys(Me3CI) 1) [Lys(Me3CI)-LTCLASYCWLF]
> 1 µM

// fetch EC50 [µM], FXa generation assay given entry KLTCLASYC[Nal]LF (not fully specified; printed as KLTCLASYC-Nal-LF; cysteine pairing not given here) [KLTCLASYC-Nal-LF]
< 0.5 µM
